Value source: the supplement of paper PMC9170038

# Tested on: MS2 coat protein
# TEST PROTOCOL: apparent KD of MS2 coat protein; higher = weaker reporter binding
# PARTICULARS: Eterna round: R107; input ligand: none
Assign class by apparent KD of MS2 coat protein: not lower than 20 nM means Satisfied; lower than 20 nM means Not satisfied.

Study these solved cases before continuing.
* GCGCGCGCCGAAAGGCGCGCGUGUUGCGAUACCAGCCCGGAAACGGGCCCUUGGCAGCGCACAUGAGGAUCACCCAUGUCAUGUU [Exclusion - Theophylline A Attempt #1 (HarryS)] | Not satisfied
* ACGCUGAUUGAUUACAAUCAGCGAAAAGAUACCAGUGGGUAAUCCCACCCUUGGCAGCUUAAAUAUGAGGAUCACCCAUAUGGUA [TheoAS 18 #MS2Right #BothOrNeither #AlternativeMS2] | Satisfied
* ACGAUAGGACCUGAGGAACACCCAGGUGAUACCAGCCUGGAAACAGGCCCUUGGCAGCACCAAUACUCCAAUAACCUAUCGAAUA [TheoAX 12 #MicroSwitchBubble #AlternativeMS2] | Satisfied
* GUUGGUUUGCGAAGGAGCGGGUAUGUUUUCUACUGGAUCCUAACAUGAGGAUCACCCAUGUCCCAGGUAGGUCGCGCGGGCUUUG [12.aA] | Satisfied

# input for lookup
apparent KD of MS2 coat protein >= 20 nM for AAGACGGUCGGAAGGAGCGGUACAUGAGGAUCACCCAUGUACUUCUGGGCAUCCGUAGUGUGCCAGGUAGGUCGCCGAUUGCGGG [XArg-B12] ? Satisfied

---

# Tested on: K4 kissing-loop RNA reporter;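 further: bound reporter read as fluorescence of individual clusters on recovered sequencing chips by microscopy, with normalized cluster intensities fitted with a binding model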
# TEST PROTOCOL: apparent KD of K4 kissing-loop reporter; higher = weaker reporter binding
# PARTICULARS: Eterna round: R107; input ligand: arginine 13.2 mM
Recorded apparent KD of K4 kissing-loop reporter for the following sequences

Recorded apparent KD of K4 kissing-loop reporter, per entry:
- UAAGACAUGAAAGGAUAUCCGAUAUGGAGCCUUUAGUGAUGUUAGGAGCUAGCCGUAGACAAGAUCGGAGAAGGUUCAACCCACA [theeternabot_sameState_KL_FMN_B_13]: 506 nM
- UUAGUUAGAUUAUUAUUAGCCUACAAUGCUAAGGAUAUCCGAAUUCGGAGAAGGUAGUGAUGUUACUUAAGUAGGCACUAACAUU [AK7 Exc FMN A]: 745 nM
- GGUAGCAUGGCGGCCGCCACUACUGACAGCUGUCUGUUCUGGGUACCAGGGAGUGAUGUUCCCGGUAGGACCGGGCCAUGCUACC: 106 nM
- UGAUACCAGACGGCCGCCACUGCGCCAGUCAAUGACUGAGCGCGGUGGCGCUCAGUGAUGUUGUGCAGGACCGGGUCUGGUAUCU [Mod of Eli's TrypBX 8 v6]: 383 nM
- UCCUGCAAUCGUCCACGAAAGUGGAUCGAUACCAGAGUCGAAAGACUCCCUUGGCAGCGAGUGAUGUUCGAAGCAGGUAAAUAAA: 387 nM

Now for a further sequence.
Request the reported apparent KD of K4 kissing-loop reporter associated with UGAUACCAGACGGCCGCCACUACACCAGUCAAAGACUGGAUGUGAUGUUCGACCAGUGAUGUUGGUAGGACCGGGUCUGGUAUCU [TrypBX 7 #Palindromic #SwitchBubble #StaticStem] 121 nM
